Reference source for all entries: patent US20250206841A1

- Assay target: T1, human Trop-2 expressed on cell surface (human, UniProt P09758 27-323)
- T1 sequence (looked up): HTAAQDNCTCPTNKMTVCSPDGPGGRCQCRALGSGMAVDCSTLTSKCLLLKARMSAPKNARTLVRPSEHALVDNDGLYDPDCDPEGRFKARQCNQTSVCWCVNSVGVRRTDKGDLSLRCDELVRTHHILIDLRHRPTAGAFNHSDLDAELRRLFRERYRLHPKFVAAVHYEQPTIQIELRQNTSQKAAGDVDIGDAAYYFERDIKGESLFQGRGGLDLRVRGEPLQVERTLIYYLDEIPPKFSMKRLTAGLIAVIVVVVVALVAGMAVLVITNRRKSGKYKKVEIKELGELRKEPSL
- Method description: cell-based or functional assay
Items are presented alongside their recorded Internalization %, MCF-7, 0.5 µg/ml, 2 h.
Only the number, expressed in %, is required.

10A9 (antibody, V domains shown, Rabbit-derived clone; LEM construct: VH + rabbit IgG CH1 + human IgG1 CH2-CH3) VH: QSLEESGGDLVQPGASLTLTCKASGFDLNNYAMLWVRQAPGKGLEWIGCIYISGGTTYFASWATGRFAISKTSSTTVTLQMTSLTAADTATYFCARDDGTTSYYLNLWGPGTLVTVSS VL: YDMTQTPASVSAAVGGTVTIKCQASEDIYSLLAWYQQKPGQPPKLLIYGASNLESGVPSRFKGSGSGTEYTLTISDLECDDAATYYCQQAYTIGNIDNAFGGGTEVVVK    39

Query :: Name the recorded Internalization %, MCF-7, 0.5 µg/ml, 2 h of the binder listed here: 74F11/15F5 (antibody, human IgG1, V domains shown, LEM construct: VH + rabbit IgG CH1 + human IgG1 CH2-CH3) VH: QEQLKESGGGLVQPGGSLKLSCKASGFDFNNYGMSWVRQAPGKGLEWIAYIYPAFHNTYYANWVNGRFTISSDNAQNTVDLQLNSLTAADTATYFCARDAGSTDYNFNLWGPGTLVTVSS VL: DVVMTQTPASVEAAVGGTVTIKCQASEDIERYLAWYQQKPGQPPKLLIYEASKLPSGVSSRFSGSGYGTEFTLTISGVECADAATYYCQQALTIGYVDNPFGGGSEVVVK
Result :: 54

Query :: Tell me its Internalization %, MCF-7, 0.5 µg/ml, 2 h given 9D7 (antibody, V domains shown, Rabbit-derived clone; LEM construct: VH + rabbit IgG CH1 + human IgG1 CH2-CH3) VH: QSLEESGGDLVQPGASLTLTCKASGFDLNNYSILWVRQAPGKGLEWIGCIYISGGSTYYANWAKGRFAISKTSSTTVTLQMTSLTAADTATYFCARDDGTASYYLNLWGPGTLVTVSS VL: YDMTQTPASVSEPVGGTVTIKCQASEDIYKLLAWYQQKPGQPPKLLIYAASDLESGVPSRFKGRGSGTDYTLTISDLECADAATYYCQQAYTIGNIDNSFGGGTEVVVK as the entry.
Result :: 60
